Where do these numbers come from? They come from patent US20140328762A1.

# SYSTEM: T1, E3 peptide
# T1 chain: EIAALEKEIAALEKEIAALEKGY
# METHOD DESCRIPTION: CD spectra analysis, curve fitting (data not shown)
OBSERVED PROPERTY: Kd (nM)
Output spec: scalar in nM, unitless text.

# input Note down Kd recorded for KICALKAKIAALKAKICALKAGY (modifications not checked) [K3-b1b3 peptide (unlabeled)]
# output 45
